Target: T1, Fusion protein of extracellular domain of human TIGIT and His-tag (human TIGIT ECD-his) (human)
T1 chain: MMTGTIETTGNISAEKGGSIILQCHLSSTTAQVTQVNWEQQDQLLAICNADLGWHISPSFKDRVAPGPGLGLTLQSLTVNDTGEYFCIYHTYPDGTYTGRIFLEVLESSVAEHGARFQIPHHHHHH
Experiment: BIAcore
endpoint.label: kon (M⁻¹ s⁻¹)
Report only the number, with the unit M⁻¹ s⁻¹ understood.

Exercise: Find the recorded kon belonging to TIGIT-070-H1L1 (antibody, V domains shown, Humanized anti-TIGIT antibody) VH: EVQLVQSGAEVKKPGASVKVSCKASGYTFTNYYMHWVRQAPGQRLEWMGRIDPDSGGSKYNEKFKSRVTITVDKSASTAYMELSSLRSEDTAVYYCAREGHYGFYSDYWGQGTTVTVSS VL: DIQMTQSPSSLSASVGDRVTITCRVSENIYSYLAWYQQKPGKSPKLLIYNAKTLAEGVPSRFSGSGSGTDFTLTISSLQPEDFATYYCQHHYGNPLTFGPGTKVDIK and report it.
Solution: 875000

Exercise: Find the recorded kon belonging to TIGIT-005-H2L1d (antibody, V domains shown, Humanized anti-TIGIT antibody with NG-site mutation in VL) VH: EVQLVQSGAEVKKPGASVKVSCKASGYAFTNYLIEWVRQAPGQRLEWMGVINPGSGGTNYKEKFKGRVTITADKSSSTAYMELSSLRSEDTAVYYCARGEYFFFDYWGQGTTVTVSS VL: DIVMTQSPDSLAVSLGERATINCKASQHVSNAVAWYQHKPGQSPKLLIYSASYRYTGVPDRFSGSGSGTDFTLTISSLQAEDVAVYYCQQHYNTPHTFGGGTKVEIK and report it.
Solution: 3.02e+06

Exercise: Find the recorded kon belonging to TIGIT-002-H4L3 (antibody, V domains shown, Humanized anti-TIGIT antibody) VH: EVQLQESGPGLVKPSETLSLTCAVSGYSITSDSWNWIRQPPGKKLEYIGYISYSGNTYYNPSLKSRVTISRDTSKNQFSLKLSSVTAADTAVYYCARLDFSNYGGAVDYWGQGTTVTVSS VL: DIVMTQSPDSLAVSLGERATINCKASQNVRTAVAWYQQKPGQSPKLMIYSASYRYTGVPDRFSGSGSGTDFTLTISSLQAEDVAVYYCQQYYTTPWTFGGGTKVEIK and report it.
Solution: 2.95e+06

Exercise: Find the recorded kon belonging to TIGIT-006-H5L3 (antibody, V domains shown, Humanized anti-TIGIT antibody) VH: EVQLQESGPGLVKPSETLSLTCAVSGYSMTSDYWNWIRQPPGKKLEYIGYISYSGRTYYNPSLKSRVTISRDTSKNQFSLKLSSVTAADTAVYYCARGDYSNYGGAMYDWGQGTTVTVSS VL: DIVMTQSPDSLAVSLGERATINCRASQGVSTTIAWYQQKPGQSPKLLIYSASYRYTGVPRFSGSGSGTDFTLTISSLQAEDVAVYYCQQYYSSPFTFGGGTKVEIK and report it.
Solution: 1.6e+06
